- Assay Text: Tolerability, LD50
- Stated Conditions: mouse, in vivo, po; mice, orally
- Method: In mice, LD50 orally is higher than 2 g/kg; LD50 intraperitoneally is higher than 600 mg/kg.
Structures can show the parent of a compound that is named as a salt.
Readout Name: LD50

Inquiry: Read off the recorded LD50 for CC(=O)O[C@H](CC(=O)N[C@@H](CCCNC(=N)N)C(=O)O)C[N+](C)(C)C [ST 857, hydrochloride]
Reply text: > 2000 mg/kg

---

- Assay Text: Tolerability, LD50
- Stated Conditions: mouse, in vivo, ip; mice, intraperitoneally
- Protocol: In mice, LD50 orally is higher than 2 g/kg; LD50 intraperitoneally is higher than 600 mg/kg.
Structures can show the parent of a compound that is named as a salt.
Readout Name: LD50

Inquiry: Look up and state reported LD50 for CC(=O)O[C@H](CC(=O)N[C@@H](CCCNC(=N)N)C(=O)O)C[N+](C)(C)C [ST 857, hydrochloride]
Reply text: > 600 mg/kg
